- experimentalSystem: T1, MHC class I molecule A*0201 (biotin (bound to streptavidin-coated plate))
- T1 construct: iTopia monomer stripped of placeholder peptide and b2M, then reconstituted with test peptide and fresh b2M; also called A2; HLA-A2
- protocolNotes: iTopia peptide binding assay
Would you mind telling me the reported binding, % of positive control peptide of each entry?

binder: PWVCDCHMA [5T4 9-mer peptide 148 (PWVCDCHMA)]
binding, % of positive control peptide: 0 % of positive control
--
binder: LNSADLDCD [5T4 9-mer peptide 169 (LNSADLDCD)]
binding, % of positive control peptide: 0 % of positive control
--
binder: LGIVLALIG [5T4 9-mer peptide 180 (LGIVLALIG)]
binding, % of positive control peptide: 10 % of positive control

Dear colleague, could you send me binding, % of positive control peptide for each of the items below? Thanks.
1. GAIFLLVLY [5T4 9-mer peptide 184 (GAIFLLVLY)]
2. VQGKDRLTC [5T4 9-mer peptide 158 (VQGKDRLTC)]
3. NNPWVCDCH [5T4 9-mer peptide 147 (NNPWVCDCH)]

Given back:
["5 % of positive control", "4 % of positive control", "0 % of positive control"]
